# System: CSNK1G2;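 further: KINOMEscan kinase panel screen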
# condition-info: concentration: 1 μM, replicates: in singlicate; n = 1
endpoint-name: %Inh (%)

{"columns": ["compound-structure", "test-system", "unit-name", "recorded-value"],
 "data": [
  ["Cc1nccc(-c2c(-c3ccc(F)cc3)ncn2CCCN2CCOCC2)n1.Cl", "CSNK1G2", "%", 6],
  ["O=C(Nc1n[nH]c2nc(-c3cccs3)c(Br)cc12)C1CC1", "CSNK1G2", "%", 0],
  ["Cc1c(Cn2c3ccccc3n3c(=O)cc(N4CCOCC4)nc23)cccc1C(F)(F)F", "CSNK1G2", "%", 43],
  ["CNc1cc(-c2ccc3c(N)n[nH]c3c2)nc(N)n1", "CSNK1G2", "%", 0],
  ["Nc1nccc(-c2c(-c3ccc(F)cc3)ncn2C2CCN(Cc3ccccc3)CC2)n1", "CSNK1G2", "%", 0]
]}
